- assay details: Pharmacokinetics of released PEGylated protease inhibitor following P.O. administration of prodrugs in rats
- Assay type: in vivo, male Sprague-Dawley rats
- Parameters: concentration or dose not given beside the values
- condition notes: mPEG3-atazanavir in plasma after PO administration of mPEG3-ATV or of the listed prodrug, rats (n = 4-5)
Reported AUCall Mean is given for each of the following compounds.
observation type: AUCall Mean (ng·h/mL)

compound	observation type	readout unit	value observed
COCCOCCOCCOC(=O)NC(C(=O)NC(Cc1ccccc1)C(CN(Cc1ccc(-c2ccccn2)cc1)NC(=O)C(NC(=O)OC)C(C)(C)C)OC(=O)CCCC(=O)OC1C(O)C(O)OC1C(O)CO)C(C)(C)C (stereo not drawn)	AUCall Mean	ng·h/mL	84.4
COCCOCCOCCOC(=O)NC(C(=O)NC(Cc1ccccc1)C(CN(Cc1ccc(-c2ccccn2)cc1)NC(=O)C(NC(=O)OC)C(C)(C)C)OC(=O)CCCC(=O)O)C(C)(C)C (stereo not drawn) [mPEG3-Atazanavir-glutaric acid]	AUCall Mean	ng·h/mL	53.8
COCCOCCOCCOC(=O)N[C@H](C(=O)N[C@@H](Cc1ccccc1)[C@H](CN(Cc1ccc(-c2ccccn2)cc1)NC(=O)[C@@H](NC(=O)OC)C(C)(C)C)OC(C)=O)C(C)(C)C [Acetyl-mPEG3-ATV, O-Acetyl-mPEG3-Atazanavir]	AUCall Mean	ng·h/mL	5.63

====

- assay details: Pharmacokinetics of released PEGylated protease inhibitor following P.O. administration of prodrugs in rats
- Format: in vivo, male Sprague-Dawley rats
- condition notes: mPEG3-atazanavir in plasma after PO administration of mPEG3-ATV or of the listed prodrug, rats (n = 4-5)
Reported MRT last Mean is given for each of the following molecules.
observation type: MRT last Mean (h)

molecule	observation type	value observed
COCCOCCOCCOC(=O)N[C@H](C(=O)N[C@@H](Cc1ccccc1)[C@H](CN(Cc1ccc(-c2ccccn2)cc1)NC(=O)[C@@H](NC(=O)OC)C(C)(C)C)OP(=O)(O)O)C(C)(C)C [mPEG3-ATV-phosphate, mPEG3-atazanavir phosphate]	MRT last Mean	7.37
COCCOCCOCCOC(=O)NC(C(=O)NC(Cc1ccccc1)C(CN(Cc1ccc(-c2ccccn2)cc1)NC(=O)C(NC(=O)OC)C(C)(C)C)OC(=O)COCCOC(=O)C(Cc1ccccc1)NC(=O)C(N)Cc1ccccc1)C(C)(C)C.Cl (centres unmarked) [mPEG3-atazanavir-CME-phe-phenylalanine, mPEG3-Atazanavir-CME-PhePhenylalanine]	MRT last Mean	16.2
COCCOCCOCCOC(=O)NC(C(=O)NC(Cc1ccccc1)C(CN(Cc1ccc(-c2ccccn2)cc1)NC(=O)C(NC(=O)OC)C(C)(C)C)OC(=O)CCCC(=O)O)C(C)(C)C (centres unmarked) [mPEG3-Atazanavir-glutaric acid]	MRT last Mean	19.5
COCCOCCOCCOC(=O)NC(C(=O)NC(Cc1ccccc1)C(CN(Cc1ccc(-c2ccccn2)cc1)NC(=O)C(NC(=O)OC)C(C)(C)C)OC(=O)CCCC(=O)OC1C(O)C(O)OC1C(O)CO)C(C)(C)C (centres unmarked)	MRT last Mean	22.5
COCCOCCOCCOC(=O)NC(C(=O)NC(Cc1ccccc1)C(CN(Cc1ccc(-c2ccccn2)cc1)NC(=O)C(NC(=O)OC)C(C)(C)C)OC(=O)CNC(=O)C(N)CC(C)C)C(C)(C)C.Cl (stereo not drawn) [Leu-Gly-mPEG3-Atazanavir, Leu-Gly-mPEG3-Atazanavir Hydrochloride]	MRT last Mean	15.9

Hey, just so you know, these numbers are from patent US20120108501A1.
